Origin of values: ChEMBL document CHEMBL4052686

Tested on: Bacillus subtilis
PROTOCOL: Antibacterial activity against penicillin-susceptible Bacillus subtilis ATCC 9372 incubated for 24 hrs by tube-dilution method
Assay type: functional
STUDY CONDITIONS: ATCC 9372, 24 h
Listed next: entries and their corresponding MIC.
// note: answer is a bare numeric in µg/mL

Some solved entries appear below for comparison.
{"COMPOUND": "C[n+]1cc2ccccc2c2cc(Cl)ccc21.[Cl-]", "UNIT NAME": "µg/mL", "MIC": 16}
{"COMPOUND": "Cc1cc(C)c2c(c1)c1ccccc1c[n+]2C.[Cl-]", "UNIT NAME": "µg/mL", "MIC": 4}
{"COMPOUND": "C[n+]1cc2ccccc2c2cc(OC(F)(F)F)ccc21.[Cl-]", "UNIT NAME": "µg/mL", "MIC": 128}
{"COMPOUND": "C[n+]1cc2ccccc2c2cc(C(F)(F)F)ccc21.[Cl-]", "UNIT NAME": "µg/mL", "MIC": 128}
{"COMPOUND": "Cc1ccc2c(c1)c1ccccc1c[n+]2C.[Cl-]", "UNIT NAME": "µg/mL", "MIC": 4}
{"COMPOUND": "CSc1cccc2c3ccccc3c[n+](C)c12.[Cl-]", "UNIT NAME": "µg/mL", "MIC": 8}
{"COMPOUND": "Cc1onc(-c2ccccc2)c1C(=O)N[C@@H]1C(=O)N2[C@@H]1SC(C)(C)[C@@H]2C(=O)[O-].[Na+]", "UNIT NAME": "µg/mL", "MIC": 8}
{"COMPOUND": "CSc1ccc2c(c1)c1ccccc1c[n+]2C.[Cl-]", "UNIT NAME": "µg/mL", "MIC": 8}

Hello, please tell me recorded MIC for this one: O=C(O)c1cn(C2CC2)c2cc(N3CCNCC3)c(F)cc2c1=O [CIPROFLOXACIN]
8

Hello, please tell me recorded MIC for this one: CCCCc1ccc2c(c1)c1ccccc1c[n+]2C.[Cl-]
4

Hello, please tell me recorded MIC for this one: C[n+]1cc2ccccc2c2cccc(OC(F)(F)F)c21.[Cl-]
4
